Origin of measurements: PubChem BioAssay AID330

- System: P388 leukemia ip, CD2F1 mice, survival T/C
- assay: NCI In Vivo Anticancer Drug Screen. Data for tumor model P388 Leukemia (intraperitoneal) in CD2F1 (CDF1) mice
- condition-label: endpoint: median survival time; dose: 100.0 mg/kg/injection; schedule: Q01DX009 (ip); vehicle: other; higher = longer survival
Inconclusive results and toxic doses are left out.
measurement-kind: T/C

See these solved cases before continuing.
>  <compound>
Cc1nc(C(=O)O)cc([N+](=O)[O-])c1C

>  <T/C>
100 % of control

$$$$
>  <compound>
CCCCCCCC(=O)NC1CC(O[C@H]2C[C@](O)(C(=O)CO)Cc3c(O)c4c(c(O)c32)C(=O)c2c(OC)cccc2C4=O)OC(C)C1O (stereo not given in full)

>  <T/C>
86 % of control

$$$$
>  <compound>
Cc1c(-c2ccccc2)ccnc1/C=N/NS(=O)(=O)c1ccccc1

>  <T/C>
97 % of control

$$$$
>  <compound>
O=S(=O)(N/N=C/c1ccncc1)c1ccccc1

>  <T/C>
157 % of control

$$$$

Kindly consider the entry below.
Data request: What is its T/C for P388 leukemia ip, CD2F1 mice, survival T/C? Entry: C(#CCOc1ccc2c(c1)OCO2)COc1ccc2c(c1)OCO2
Data returned: 104 % of control
